System: MDA-MB-231 breast
Experiment: NCI tumour cell line growth inhibition, 48 h
Give TGI for every item shown.

NC1=NC(c2ccccc2Cl)c2c(n[nH]c2N)N1 (stereo not given) | > 100 µM
COc1ccc2oc(=O)c(-c3cc4c(c(C)n3)c(=O)oc3ccc(OC)cc34)cc2c1 | > 100 µM
[N-]=[N+]=CC(=O)C1CCN(c2ccccc2)C1=O (stereo not given) | > 10 µM
O=C1Nc2ccc(-c3cccnc3)cc2/C1=C/c1cc(Br)c(O)c(Br)c1 | > 25 µM

Next:
Recorded result, CCOC(=O)N1CCNCCN(C(=O)OCC)CCNCC1 , TGI: > 100 µM
